Tested on: HEPG2
Test: Euclidean distance of Cell Painting phenotypic profile (signed KS, 77 features) to DMSO centroid (dimensionless distance); 5 or 10 uM (library dependent); higher = stronger phenotypic change vs DMSO (phenoactivity)
Conditions: 48 h
Structures can show the parent of a compound that is named as a salt.
Label scheme for Euclidean distance: lower than 0.9 is -1, 0.9 and above is 1.

Some entries whose results are on file:
CC(=O)OCC(=O)[C@@]12N=C(C)O[C@@H]1C[C@H]1[C@@H]3CCC4=CC(=O)C=C[C@]4(C)[C@H]3[C@@H](O)C[C@@]12C: 1
O=C(Nc1cccc(Cl)c1)c1ccccn1: -1
CCCCNc1ccc(C(=O)OCCN(C)C)cc1 [Tetracaine HCl]: 1
COc1ccc(S(=O)(=O)Nc2cccnc2Nc2ccc(O)cc2)cc1: 1
Cc1ccc(C(=O)C(C)CN2CCCCC2)cc1 (stereo not drawn) [Tolperisone HCl]: -1
CCC(=O)O[C@]1(C(=O)SCF)[C@H](C)C[C@H]2[C@@H]3C[C@H](F)C4=CC(=O)C=C[C@]4(C)[C@@]3(F)[C@@H](O)C[C@@]21C [Fluticasone propionate]: -1
COc1ccc2c(c1)c(CC(=O)O)c(C)n2C(=O)c1ccc(Cl)cc1: 1

Turning now to a further molecule:
Query :: Threshold query (Euclidean distance >= 0.9) on O=C(OC(C(F)(F)F)C(F)(F)F)N1CCN(Cc2ccc(C(F)(F)F)cc2N2CCCC2)CC1
Result :: 1

---

Tested on: 786-O
Experiment: Euclidean distance of Cell Painting phenotypic profile (signed KS, 77 features) to DMSO centroid (dimensionless distance); 5 or 10 uM (library dependent); higher = stronger phenotypic change vs DMSO (phenoactivity)
Conditions: 48 h
Label scheme for Euclidean distance: lower than 0.9 is class 0, 0.9 and above is class 1.

Some entries whose results are on file:
CC1(C)O[C@@H]2[C@@H](CO[C@@]3(COS(N)(=O)=O)OC(C)(C)O[C@@H]23)O1 [Topiramate]: class 1
CC(=O)Nc1cccc2c1c(Sc1ccc(Cl)cc1)c(C)n2CC(=O)O: class 0
O=C1NCCc2[nH]c(-c3ccncc3)cc21: class 1

Turning now to a further molecule:
Query :: Threshold query (Euclidean distance >= 0.9) on COCC(=O)Nc1cc(Sc2ccccc2)ccc1N=C(NC(=O)OC)NC(=O)OC
Result :: class 1

---

Test system: 786-O
Experiment: Euclidean distance of Cell Painting phenotypic profile (signed KS, 77 features) to DMSO centroid (dimensionless distance); 5 or 10 uM (library dependent); higher = stronger phenotypic change vs DMSO (phenoactivity)
Settings: 48 h
Counter-ions that a name gives are not always drawn.
Property: Euclidean distance; scope: individual compounds
Keep it simple and answer with nothing but the number.

O=C(NOCC(O)CO)c1cc(Br)c(F)c(F)c1Nc1ccc(I)cc1F (centres undefined): 1.97
Nc1ccc(-c2ccc3ncc4ccc(=O)n(-c5cccc(C(F)(F)F)c5)c4c3c2)cn1 [Torin 2]: 5.09
NC(=O)c1noc([C@H](CCCC2CCCCC2)CC(=O)NO)n1: 1.23

// moving on: another record for Euclidean distance
The recorded Euclidean distance for CC(C)(C)C(=O)OCOC(=O)[C@@H]1N2C(=O)[C@@H](/N=C/N3CCCCCC3)[C@H]2SC1(C)C [Pivmecillinam hydrochloride] is 1.23

---

Property: Euclidean distance; scope: individual compounds
System: A549
Assay: Euclidean distance of Cell Painting phenotypic profile (signed KS, 77 features) to DMSO centroid (dimensionless distance); 5 or 10 uM (library dependent); higher = stronger phenotypic change vs DMSO (phenoactivity)
Conditions: 48 h
Keep it simple and answer with nothing but the number.

A selection of reference data follows.
CCNC(=O)Nc1ccc(-c2nc3c(c(N4CCOC[C@@H]4C)n2)CCN(C2COC2)C3)cc1: 3.22
Cc1ncc(-c2ccnc(Nc3ccc(S(C)(=O)=O)cc3)n2)n1C(C)C: 3.78
COc1ncnc(NS(=O)(=O)c2ccc(N)cc2)c1OC [Sulfadoxine]: 1.24

The recorded Euclidean distance for C[C@@H]1CC(=O)NN=C1c1ccc(NN=C(C#N)C#N)cc1 [Levosimendan] is 0.486

The recorded Euclidean distance for O[C@@H]1CO[C@H]2[C@@H]1OC[C@@H]2O [Isosorbide] is 0.673

The recorded Euclidean distance for C=CC(=O)N1CC/C(=C\c2ccc(F)c([N+](=O)[O-])c2)C(=O)/C(=C/c2ccc(F)c([N+](=O)[O-])c2)C1 is 5.03
